Attribute: pIC50
- measured.on: hSLC13A5 (Homo sapiens, UniProt Q86YT5)
- Sequence (Q86YT5 whole entry): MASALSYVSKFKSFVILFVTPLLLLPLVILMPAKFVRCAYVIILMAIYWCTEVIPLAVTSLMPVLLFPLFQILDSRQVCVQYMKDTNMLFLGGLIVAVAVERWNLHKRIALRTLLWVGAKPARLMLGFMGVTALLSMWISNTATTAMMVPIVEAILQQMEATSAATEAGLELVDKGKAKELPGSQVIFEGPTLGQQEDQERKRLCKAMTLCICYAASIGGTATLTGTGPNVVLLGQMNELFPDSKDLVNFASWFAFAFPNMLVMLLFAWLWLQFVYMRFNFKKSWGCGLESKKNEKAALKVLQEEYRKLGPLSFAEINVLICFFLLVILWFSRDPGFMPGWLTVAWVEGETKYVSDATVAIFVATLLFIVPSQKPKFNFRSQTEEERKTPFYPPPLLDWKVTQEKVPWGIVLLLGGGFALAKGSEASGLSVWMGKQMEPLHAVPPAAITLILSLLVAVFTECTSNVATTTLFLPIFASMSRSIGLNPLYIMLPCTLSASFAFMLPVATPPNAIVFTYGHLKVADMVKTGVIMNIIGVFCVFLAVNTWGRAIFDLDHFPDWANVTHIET
- assay.summary: HepG2/14C-citrate uptake assay
- Type: cell-based
- Design: HepG2 cells endogenously express hSLC13A5 transporter which is responsible for the uptake of citrate into these cells; endogenous in cells; host or cells: HepG2
- details: HepG2 cells endogenously expressing hSLC13A5; Cytostar-T; 14C-citrate ~1.8 μM; incubation over night
API: returns pIC50 as number; meaning -log10 of concentration in mol/L.

As a guide, the following entries are already answered.
> print(dat)
                                   molecule  assay.value
1  O=C(NCc1ccc(Cl)cc1)C1CCN(S(=O)(=O)c2cc(Cl)cc(Cl)c2)CC1 [(I-5)]         7.66
2  O=C(NCc1ccc(F)cc1Cl)C1CCN(S(=O)(=O)c2cc(Cl)cc(Cl)c2)CC1 [(I-22)]         7.08
3  Cc1cc(C)cc(S(=O)(=O)N2CCC(C(=O)NCc3ccc(Cl)cc3)CC2)c1 [(I-45)]         7.60
4  COc1ccccc1CNC(=O)C1CCN(S(=O)(=O)c2cc(Br)cc(Br)c2)CC1 [(I-34)]         7.57
5  Cc1cc(C)cc(S(=O)(=O)N2CCC(C(=O)NCc3ccc(C#N)cc3)CC2)c1 [(I-43)]         7.34
6  N#Cc1ccc(CNC(=O)C2CCN(S(=O)(=O)c3cc(Cl)cc(Cl)c3)CC2)c(F)c1 [(I-23)]         6.85

Now look at this entry.
## Task Looking for the measured pIC50 of O=C(NCc1ccccc1Cl)C1CCN(S(=O)(=O)c2cc(Cl)cc(Cl)c2)CC1 [(I-18)] , can you help?
## Result 7.22

====

- measured.on: hSLC13A5 (Homo sapiens, UniProt Q86YT5)
- assay.summary: Recombinant hSLC13A5/14C-citrate uptake assay
- Format: cell-based
- details: HEK293 Flp-In cells over-expressing hSLC13A5; WGA-PVT SPA beads; 14C-citrate approx. 2 μM; 4 h
Attribute: pIC50
API: returns pIC50 as number; meaning -log10 of concentration in mol/L.

> print(dat)
                           structure.string  measured.endpoint  assay.value
1  O=C(NCc1ccc(F)cc1)C1CCN(S(=O)(=O)c2cc(Br)cc(Br)c2)CC1              pIC50         7.59

## Task Quick check: pIC50 on hSLC13A5 (Homo sapiens, UniProt Q86YT5), item "N#Cc1ccc(CNC(=O)C2CCN(S(=O)(=O)c3cc(Cl)cc(Cl)c3)CC2)c(F)c1" ?
## Result 7.04

## Task Quick check: pIC50 on hSLC13A5 (Homo sapiens, UniProt Q86YT5), item "Cc1ccc(CNC(=O)C2CCN(S(=O)(=O)c3cc(Cl)cc(Cl)c3)CC2)nc1" ?
## Result 6.71

## Task Quick check: pIC50 on hSLC13A5 (Homo sapiens, UniProt Q86YT5), item "COc1cc(Cl)cc(S(=O)(=O)N2CCC(C(=O)NCc3ccc(F)cc3)CC2)c1" ?
## Result 6.78

## Task Quick check: pIC50 on hSLC13A5 (Homo sapiens, UniProt Q86YT5), item "O=C(NCc1cccnc1)C1CCN(S(=O)(=O)c2cc(Br)cc(Br)c2)CC1" ?
## Result 6.45

## Task Quick check: pIC50 on hSLC13A5 (Homo sapiens, UniProt Q86YT5), item "Cc1cc(Br)cc(S(=O)(=O)N2CCC(C(=O)NCc3ccccn3)CC2)c1" ?
## Result 6.36

## Task Quick check: pIC50 on hSLC13A5 (Homo sapiens, UniProt Q86YT5), item "O=C(NCc1cccc(Cl)n1)C1CCN(S(=O)(=O)c2cc(Cl)cc(Cl)c2)CC1" ?
## Result 6.35

## Task Quick check: pIC50 on hSLC13A5 (Homo sapiens, UniProt Q86YT5), item "CCc1ccc(CNC(=O)C2CCN(S(=O)(=O)c3cc(C)cc(Br)c3)CC2)nc1" ?
## Result 7.01

## Task Quick check: pIC50 on hSLC13A5 (Homo sapiens, UniProt Q86YT5), item "Cc1cc(C)cc(S(=O)(=O)N2CCC(C(=O)NCc3ncc(C)s3)CC2)c1" ?
## Result 6.40

## Task Quick check: pIC50 on hSLC13A5 (Homo sapiens, UniProt Q86YT5), item "O=C(NCc1ccc(Cl)cc1)C1CCN(S(=O)(=O)c2cc(Cl)cc(Cl)c2)CC1" ?
## Result 7.25

## Task Quick check: pIC50 on hSLC13A5 (Homo sapiens, UniProt Q86YT5), item "COc1ncccc1CNC(=O)C1CCN(S(=O)(=O)c2cc(Cl)cc(Cl)c2)CC1" ?
## Result 6.32
